experiment: basal S. cerevisiae growth modulation, no modifier, primary screen, OD600, strain BY4716, 24 h, basal condition (AID 1173); details: OD600, 24 h, higher = more signal, called active from +8 up or from −8 down
# cutoff 0.4 applies to z-score; >= gives Criterion met, < gives Criterion not met

Example entries and their recorded answers appear below.
NC(=O)NCC#Cc1ccc2c(c1)[C@]1(C(=O)N2)[C@H](C(=O)NC[C@H](O)c2ccccc2)[C@H]2C(=O)O[C@H](c3ccccc3)[C@H](c3ccccc3)N2[C@@H]1c1ccc(OCCO)cc1 :: Criterion met
CN(C)C(=O)[C@]1(CCS(=O)(=O)c2ccccc2)N=C(c2ccc(OCCCO)cc2)O[C@@H]1c1ccccc1N=[N+]=[N-] :: Criterion not met
C=CCNC(=O)[C@H]1[C@@H]2C(=O)O[C@@H](c3ccccc3)[C@@H](c3ccccc3)N2[C@@H](c2ccc(O)cc2)[C@]12C(=O)Nc1ccc(C#CC3(O)CCCCCC3)cc12 :: Criterion not met

Q: // inclusive: z-score at least 0.4? input: COc1ccc(NC(=O)O[C@H]2[C@H](OC(=O)Nc3ccccc3)[C@H](OC(=O)Nc3ccccc3)[C@@H](OC)O[C@@H]2CO)cc1
Result: Criterion met

Q: Entry CCOC(=O)C1CCCCN1 (configuration not stated) please
Result: Criterion met

Q: One more compound: CCCCCCc1nc(C2CC2)cc2c1[Si](C(C)C)(C(C)C)OC2
Result: Criterion met
